Target: Ba/F3 V617F cells (Homo sapiens, UniProt O60674, V617F, cells depend on it)
Sequence (O60674 whole entry V617F): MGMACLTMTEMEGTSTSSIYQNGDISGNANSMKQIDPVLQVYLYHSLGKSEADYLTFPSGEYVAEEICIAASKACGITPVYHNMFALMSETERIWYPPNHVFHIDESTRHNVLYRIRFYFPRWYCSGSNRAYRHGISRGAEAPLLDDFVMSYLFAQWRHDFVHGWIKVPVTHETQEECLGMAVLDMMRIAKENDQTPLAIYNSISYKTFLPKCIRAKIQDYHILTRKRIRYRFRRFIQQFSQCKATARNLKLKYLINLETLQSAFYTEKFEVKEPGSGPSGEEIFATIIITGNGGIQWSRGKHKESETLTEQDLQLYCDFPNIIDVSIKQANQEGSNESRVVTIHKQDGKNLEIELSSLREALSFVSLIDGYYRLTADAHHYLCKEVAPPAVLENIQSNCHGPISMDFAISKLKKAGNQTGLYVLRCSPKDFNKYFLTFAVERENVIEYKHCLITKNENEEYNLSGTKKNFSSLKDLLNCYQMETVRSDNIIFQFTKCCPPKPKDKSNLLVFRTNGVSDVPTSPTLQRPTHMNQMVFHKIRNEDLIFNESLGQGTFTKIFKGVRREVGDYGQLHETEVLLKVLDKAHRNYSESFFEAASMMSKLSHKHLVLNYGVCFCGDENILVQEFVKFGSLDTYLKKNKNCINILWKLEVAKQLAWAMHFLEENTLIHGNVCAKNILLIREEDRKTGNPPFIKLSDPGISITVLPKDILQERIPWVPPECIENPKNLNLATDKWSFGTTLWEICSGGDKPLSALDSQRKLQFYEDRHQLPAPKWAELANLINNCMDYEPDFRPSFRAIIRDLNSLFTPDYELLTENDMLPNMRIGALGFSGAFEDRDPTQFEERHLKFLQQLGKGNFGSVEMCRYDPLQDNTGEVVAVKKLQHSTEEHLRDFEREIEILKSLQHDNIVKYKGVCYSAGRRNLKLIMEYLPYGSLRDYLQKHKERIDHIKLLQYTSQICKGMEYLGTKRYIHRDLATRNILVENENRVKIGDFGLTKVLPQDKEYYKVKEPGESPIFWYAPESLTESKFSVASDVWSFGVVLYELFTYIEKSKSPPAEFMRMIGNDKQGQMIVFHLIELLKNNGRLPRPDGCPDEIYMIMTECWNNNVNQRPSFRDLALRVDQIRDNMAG
Assay: Proliferation assay (Cell Titer-Glo, 72 h) utilizing Ba/F3 V617F cells
Assay type: cell-based, mouse
Details: Ba/F3 V617F cells, proliferation, level of activity to inhibit JAK2, read-out: IC50 (the source's name)
Experimental: Ba/F3 V617F cells are maintained and plated in RPMI with 10% FBS. Plating density for these cells is 1×10^5 cells/mL. The cells were resuspended in a corresponding medium at a required cell density (see above). 100μ of cell suspension was added to each well of a flat bottom 96 well white plate. […] Proliferation was measured using Cell Titer-Glo. […] The Luminescence was read on the Wallac Plate Reader. […]
value.kind: GI50

Some entries whose results are on file:
structure.as.smiles | measurement.target | GI50
Cc1cc(Nc2nccc(-c3ccc(NC(=O)C(C)(C)C)cc3)n2)ccc1N1C[C@@H]2C[C@H]1CN2C | Ba/F3 V617F cells (Homo sapiens, UniProt O60674, V617F, cells depend on it) | < 1000 nM
Cc1cc(Nc2nccc(-c3cnc4[nH]ccc4c3)n2)ccc1N1C[C@@H]2C[C@H]1CO2 | Ba/F3 V617F cells (Homo sapiens, UniProt O60674, V617F, cells depend on it) | < 1000 nM
CN(C)c1nc(-c2ccnc(Nc3ccc(N4C[C@@H]5C[C@H]4CN5C)c(F)c3)n2)cs1 | Ba/F3 V617F cells (Homo sapiens, UniProt O60674, V617F, cells depend on it) | 1000 to 10000 nM
CN1C[C@H]2C[C@@H]1CN2c1ccc(Nc2nccc(-c3ccc(N4CCOCC4)nc3)n2)cc1F | Ba/F3 V617F cells (Homo sapiens, UniProt O60674, V617F, cells depend on it) | < 1000 nM
Cc1cc(Nc2nccc(-c3cnc4[nH]ccc4c3)n2)ccc1N1C[C@@H]2C[C@H]1CN2CC(F)(F)F | Ba/F3 V617F cells (Homo sapiens, UniProt O60674, V617F, cells depend on it) | < 1000 nM
CN1C[C@@H]2C[C@H]1CN2c1ccc(Nc2nccc(-c3cnc4c(c3)OC(C)(C)C(=O)N4)n2)cc1C#N | Ba/F3 V617F cells (Homo sapiens, UniProt O60674, V617F, cells depend on it) | < 1000 nM

Q: Requested read-out: GI50. Entry: CN1C[C@@H]2C[C@H]1CN2c1ccc(Nc2nccc(-c3ccc(NCCN4CCOCC4)nc3)n2)cc1F
A: < 1000 nM

Q: Which measured GI50 value corresponds to CN1CC2(C)CN(c3ccc(Nc4nccc(-c5ccc(N(C)C)cc5)n4)cc3F)CC(C)(C1)C2 ?
A: < 1000 nM
